Test: compound-only thermal shift signal without protein, dose response, artefact control for FGF22 binder project, biochemical, cherry-picked samples, RT-PCR instrument (AID 743019); note: value is where the raw curve crosses a fixed level and not half-maximal
Details: compound-only SYPRO orange thermal shift counter-screen, no protein; at 38 µM (top of the series) unless noted
Hit rate of the full screen: of about 1,000 compounds, about 25 (2%) were called active. The list is a sample of the results.
assay_readout: outcome

Cc1ccc(S(=O)(=O)Nc2nc3ccccc3s2)cc1[N+](=O)[O-] ... inactive
C[C@@H]1CN([C@H](C)CO)S(=O)(=O)c2ccc(-c3ccncc3)cc2O[C@@H]1CN(C)C(=O)Nc1ccc(C(F)(F)F)cc1 ... inactive
COCCN(C(=O)C(C)C)c1nnc(-c2ccc(C(C)(C)C)cc2)s1 ... inactive

---

Assay: compound-only thermal shift signal without protein, dose response, artefact control for FGF22 binder project, biochemical, cherry-picked samples, RT-PCR instrument (AID 743019); note: value is where the raw curve crosses a fixed level and not half-maximal
Conditions: compound-only SYPRO orange thermal shift counter-screen, no protein; at 38 µM (top of the series) unless noted
Screen size: about 1,000 compounds; about 25 (2%) were called active. These entries were drawn from the full list.
assay_readout: outcome

O=C(N/N=C/c1ccc(OCc2ccccc2)cc1)c1ccc(O)cc1 ... inactive
COc1ccc(-c2cc(=O)oc3cc(OCC(=O)N[C@@H](Cc4c[nH]c5ccccc45)C(=O)O)ccc23)cc1 ... inactive
C[C@@H]1CCCCO[C@@H](CN(C)Cc2ccncc2)[C@H](C)CN([C@H](C)CO)C(=O)c2cc(NC(=O)Cc3ccccc3)ccc2O1 ... inactive
